Reference source for all entries: ChEMBL document CHEMBL5335784

I'd be grateful if you could share measured logD at 4 h for these entries.
Experiment: n-Octanol/water distribution coefficient, log D of the compound at pH 7.4 measured after 4 hrs by shake flask method
Format: physicochemical
Lab note: record just the number, no unit beside it.

O=c1oc(Cc2ccccc2Cl)nn1Cc1nn[nH]n1 yielded logD at 4 h of -1.09

According to the records, this compound CCOC(=O)Cn1nc(Cc2ccccc2Cl)oc1=O displays logD at 4 h of 2.03

Just so you know, measured logD at 4 h for O=C(O)Cn1nc(Cc2ccccc2Cl)oc1=O came out at -1.66

Record summary for CC(C)(C)OC(=O)Cn1nc(Cc2ccccc2Cl)oc1=O : reported logD at 4 h = 3.1

###

Test: Drug metabolism in PBS assessed as half time for compound hydrolysis to 2-(5-(2-Chlorobenzyl)-2-oxo-1,3,4-oxadiazol-3(2H)-yl)acetic acid at 100 uM at pH 7.4 by RP-HPLC analysis
Assay type: ADME
READOUT_TYPE: half-life at 100 µM

Value of half-life at 100 µM reported for the molecule CCOC(=O)Cn1nc(Cc2ccccc2Cl)oc1=O is > 48 h

###

Assay: Drug metabolism in human THP-1 cells assessed as half time for compound hydrolysis to 2-(5-(2-Chlorobenzyl)-2-oxo-1,3,4-oxadiazol-3(2H)-yl)acetic acid at 100 uM by RP-HPLC analysis
Format: ADME, cell-based
READOUT_TYPE: half-life at 100 µM (h)
Please reply with the bare figure in h and do not write the unit itself.

Per the record, CCOC(=O)Cn1nc(Cc2ccccc2Cl)oc1=O has half-life at 100 µM of 1.08

###

Test: Drug metabolism in human serum assessed as half time for compound hydrolysis to 2-(5-(2-Chlorobenzyl)-2-oxo-1,3,4-oxadiazol-3(2H)-yl)acetic acid at 100 uM by RP-HPLC analysis
Format: ADME, cell-free
READOUT_TYPE: half-life at 100 µM
Note to self: number, then unit, no commentary.

Measured half-life at 100 µM of CCOC(=O)Cn1nc(Cc2ccccc2Cl)oc1=O : 4 h

###

Assay: Cytotoxicity against human THP-1 cells assessed as reduction in cell viability measured after 72 hr by MTT assay
Format: toxicity, cell-based
Settings: read-out: TC50
READOUT_TYPE: CC50 at 72 h

So for O=c1oc(Cc2ccccc2Cl)nn1Cc1nn[nH]n1 , the logged CC50 at 72 h turned out to be > 100 µM

Looking up CCOC(=O)C1CCCN(c2nnc(NC(=O)c3ccccc3Cl)s2)C1 (stereo not drawn) , I found its CC50 at 72 h recorded as 79.7 µM

Lab note: measured CC50 at 72 h of COC(=O)c1ccc(-c2noc(Cc3ccccc3Cl)n2)cc1 was > 100 µM

###

Assay: Cytotoxicity against human THP-1 cells assessed as reduction in cell viability measured after 72 hr by MTT assay
Assay type: toxicity, cell-based
Conditions: read-out: TC50
Give measured CC50 at 72 h for each item. Keep answers brief.
Answer format: numeric, µM implied, no suffix.

get_value(item= COc1ccc(Cn2nc(Cc3ccccc3Cl)oc2=O)cc1 , readout=CC50 at 72 h) returns 64.8

Entry COC(=O)c1ccc(-c2noc(Cc3cccc(C(F)(F)F)c3)n2)cc1 , CC50 at 72 h reported as 94.5

Sure, the documented CC50 at 72 h for CCOC(=O)CN(C)c1nnc(NC(=O)c2ccccc2Cl)s1 is 96.1

Form: compound = CCOC(=O)Cn1nc(Cc2ccccc2Cl)oc1=O ; CC50 at 72 h = 76.5

Recorded result, CC(C)c1cc(Cl)cc(C(C)C)c1NC(=O)NS(=O)(=O)c1cc(C(C)(C)O)co1 , CC50 at 72 h: 92.5

Just so you know, measured CC50 at 72 h for O=C(O)c1ccc(-c2nc(Cc3cccc(C(F)(F)F)c3)no2)cc1 came out at 27.3

Entry O=C(O)Cn1nc(Cc2ccccc2Cl)oc1=O , CC50 at 72 h reported as 94.6

Recorded result, CC(C)(C)OC(=O)Cn1nc(Cc2ccccc2Cl)oc1=O , CC50 at 72 h: 98.9

CC50 at 72 h in this record for CCOC(=O)CN(Cc1ccccc1)c1nnc(NC(=O)c2ccccc2Cl)s1 : 91.6
